- Tgt: Protein disulfide-isomerase A3 (Homo sapiens)
- Sequence (P30101 whole entry): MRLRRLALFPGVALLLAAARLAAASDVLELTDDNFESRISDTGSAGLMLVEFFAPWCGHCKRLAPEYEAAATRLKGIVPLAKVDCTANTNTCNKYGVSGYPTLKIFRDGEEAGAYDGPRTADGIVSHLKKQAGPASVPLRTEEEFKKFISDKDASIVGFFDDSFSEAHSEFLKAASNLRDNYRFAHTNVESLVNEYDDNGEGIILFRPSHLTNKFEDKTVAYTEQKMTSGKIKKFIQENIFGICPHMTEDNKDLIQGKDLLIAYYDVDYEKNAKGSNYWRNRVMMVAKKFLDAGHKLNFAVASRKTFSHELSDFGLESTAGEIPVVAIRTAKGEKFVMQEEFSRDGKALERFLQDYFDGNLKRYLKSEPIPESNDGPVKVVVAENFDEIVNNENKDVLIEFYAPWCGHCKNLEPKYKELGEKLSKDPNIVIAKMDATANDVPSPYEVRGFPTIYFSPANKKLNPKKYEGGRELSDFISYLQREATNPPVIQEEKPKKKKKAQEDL
Value Type: IC50 (µM)
Numeric answer only, unit µM assumed.

Lookup: Return value of IC50 for input "CCCCCCCC/C=C1\C=C(C(F)(F)F)c2cc(O)c(O)cc21" , no commentary.
Found: 4.8
